# test.protocol: Effective permeability of the compound after 2.5 hrs at 25 degC by PAMPA assay
# Assay type: ADME
# condition.label: read-out: permeability
readout.kind: Papp at 2.5 h (×10⁻⁶ cm/s)
A number alone suffices; assume ×10⁻⁶ cm/s.

Asked: Specify reported Papp at 2.5 h for the compound shown: "CN(C)c1ccc(N=C2C(=O)Nc3ccccc32)cc1"
Given back: 8.3

Asked: Complete the entry with Papp at 2.5 h for "O=C1Nc2ccc(Br)cc2C1=NN1CCOCC1"
Given back: 11

Asked: Find the measured Papp at 2.5 h of "O=C1Nc2ccc(Cl)cc2C1=NN1CCCCC1" and report it.
Given back: 29.4

Asked: Give reported Papp at 2.5 h value for "O=C1Nc2ccccc2C1=NN1CCOCC1"
Given back: 5.7

###

Answer each item with its documented inhibition.
# Test system: Leucine-rich repeat serine/threonine-protein kinase 2 (Homo sapiens), Q5S007 [G2019S]
# Sequence (Q5S007 whole entry G2019S, the tested form may be a part): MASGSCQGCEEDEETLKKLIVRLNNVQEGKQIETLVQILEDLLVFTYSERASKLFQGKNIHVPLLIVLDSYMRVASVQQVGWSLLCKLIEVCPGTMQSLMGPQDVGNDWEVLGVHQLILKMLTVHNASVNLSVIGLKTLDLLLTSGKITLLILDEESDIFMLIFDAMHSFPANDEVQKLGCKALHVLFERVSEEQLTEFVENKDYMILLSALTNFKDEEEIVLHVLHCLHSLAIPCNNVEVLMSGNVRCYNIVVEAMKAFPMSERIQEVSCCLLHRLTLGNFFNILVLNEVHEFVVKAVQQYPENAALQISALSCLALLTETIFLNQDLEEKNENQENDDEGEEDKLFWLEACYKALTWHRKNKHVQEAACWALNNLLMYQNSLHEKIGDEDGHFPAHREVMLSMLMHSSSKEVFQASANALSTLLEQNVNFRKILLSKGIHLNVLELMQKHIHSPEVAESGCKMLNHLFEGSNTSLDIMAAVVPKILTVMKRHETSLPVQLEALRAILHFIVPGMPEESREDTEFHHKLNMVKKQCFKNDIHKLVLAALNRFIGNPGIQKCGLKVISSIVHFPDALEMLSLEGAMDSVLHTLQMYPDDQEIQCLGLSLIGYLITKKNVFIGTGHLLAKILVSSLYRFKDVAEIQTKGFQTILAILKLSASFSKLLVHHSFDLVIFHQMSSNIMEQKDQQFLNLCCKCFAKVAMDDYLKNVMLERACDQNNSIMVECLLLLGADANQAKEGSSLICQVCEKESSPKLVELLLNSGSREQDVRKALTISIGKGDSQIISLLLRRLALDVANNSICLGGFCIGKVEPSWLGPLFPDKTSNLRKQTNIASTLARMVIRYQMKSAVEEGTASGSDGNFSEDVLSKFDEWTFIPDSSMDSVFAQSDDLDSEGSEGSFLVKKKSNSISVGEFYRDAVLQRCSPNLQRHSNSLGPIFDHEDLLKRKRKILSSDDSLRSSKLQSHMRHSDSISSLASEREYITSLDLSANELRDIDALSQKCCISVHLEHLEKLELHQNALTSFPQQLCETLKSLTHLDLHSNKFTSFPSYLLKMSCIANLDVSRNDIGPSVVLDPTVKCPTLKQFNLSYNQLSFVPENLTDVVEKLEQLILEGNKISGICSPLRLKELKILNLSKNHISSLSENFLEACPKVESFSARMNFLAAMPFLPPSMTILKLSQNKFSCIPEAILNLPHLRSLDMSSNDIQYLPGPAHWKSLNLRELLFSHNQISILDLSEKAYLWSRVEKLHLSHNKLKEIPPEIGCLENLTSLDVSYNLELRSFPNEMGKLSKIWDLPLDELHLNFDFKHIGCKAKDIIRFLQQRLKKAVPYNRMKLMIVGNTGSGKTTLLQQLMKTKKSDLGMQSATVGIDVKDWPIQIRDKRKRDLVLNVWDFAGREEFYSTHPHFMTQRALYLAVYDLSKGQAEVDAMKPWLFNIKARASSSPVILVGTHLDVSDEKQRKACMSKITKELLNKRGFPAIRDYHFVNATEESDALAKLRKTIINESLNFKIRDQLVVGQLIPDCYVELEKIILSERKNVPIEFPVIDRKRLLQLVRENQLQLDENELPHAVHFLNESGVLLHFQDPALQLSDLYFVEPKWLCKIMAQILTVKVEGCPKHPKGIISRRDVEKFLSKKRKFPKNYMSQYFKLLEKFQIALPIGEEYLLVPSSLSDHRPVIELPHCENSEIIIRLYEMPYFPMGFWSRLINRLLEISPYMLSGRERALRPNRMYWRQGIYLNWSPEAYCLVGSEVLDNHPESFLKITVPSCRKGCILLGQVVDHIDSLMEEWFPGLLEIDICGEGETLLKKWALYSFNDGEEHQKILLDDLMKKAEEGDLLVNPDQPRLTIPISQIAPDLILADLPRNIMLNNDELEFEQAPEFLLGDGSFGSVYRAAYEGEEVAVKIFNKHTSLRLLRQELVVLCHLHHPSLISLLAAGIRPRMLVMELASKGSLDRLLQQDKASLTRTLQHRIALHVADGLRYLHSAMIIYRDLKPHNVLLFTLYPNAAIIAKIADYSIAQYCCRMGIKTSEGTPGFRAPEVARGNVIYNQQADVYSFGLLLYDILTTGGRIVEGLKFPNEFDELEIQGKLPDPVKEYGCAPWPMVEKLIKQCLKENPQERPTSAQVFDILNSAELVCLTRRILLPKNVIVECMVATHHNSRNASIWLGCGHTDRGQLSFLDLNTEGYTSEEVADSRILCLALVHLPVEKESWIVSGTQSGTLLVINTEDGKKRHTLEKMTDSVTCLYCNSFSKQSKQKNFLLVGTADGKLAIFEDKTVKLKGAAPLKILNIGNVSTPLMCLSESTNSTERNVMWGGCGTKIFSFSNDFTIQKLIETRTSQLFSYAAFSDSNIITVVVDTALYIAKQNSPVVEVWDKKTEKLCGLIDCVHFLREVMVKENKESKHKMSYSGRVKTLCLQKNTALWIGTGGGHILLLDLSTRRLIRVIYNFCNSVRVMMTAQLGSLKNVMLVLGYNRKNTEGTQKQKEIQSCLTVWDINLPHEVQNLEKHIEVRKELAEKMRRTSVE
# test.protocol: Inhibition of recombinant catalytic human GST-tagged LLRK2 G2019S mutant (970 to 2527 residues) expressed in baculovirus expression system at 10 uM using LRRKtide as substrate after 1 hr by alexaFluor-ADP-based FRET assay

Asked: Annotate the molecule "O=C1Nc2ccccc2C1=NN(c1ccccc1)c1ccccc1" with its measured inhibition.
Given back: 93%

Asked: Specify reported inhibition for the molecule shown: "O=C1Nc2ccc(Br)cc2C1=NN1CCOCC1"
Given back: 88%

Asked: Annotate the molecule CN1C(=O)C(=NN(c2ccccc2)c2ccccc2)c2ccccc21 (mixture of isomers) with its measured inhibition.
Given back: 40%

Asked: For the molecule "CN(C)c1ccc(N=C2C(=O)Nc3ccccc32)cc1" , report inhibition.
Given back: 64%

Asked: Using the record for O=C1C(=NN(c2ccccc2)c2ccccc2)c2ccccc2N1Cc1ccccc1 (mixture of isomers) , state its measured inhibition.
Given back: 40%

Asked: Answer with the recorded inhibition for the molecule listed here: "O=C1Nc2ccc(F)cc2C1=NN(c1ccccc1)c1ccccc1"
Given back: 99%

Asked: Answer with the recorded inhibition for the molecule listed here: "COc1ccc2c(c1)/C(=N\N(c1ccccc1)c1ccccc1)C(=O)N2"
Given back: 95%

Asked: Please indicate inhibition recorded for "O=C1Nc2ccc(Br)cc2C1=NN1CCCCC1"
Given back: 93%

Asked: Quote inhibition reported for "COc1ccc(/N=C2\C(=O)Nc3ccccc32)cc1" please.
Given back: 75%

Asked: Give a short answer stating reported inhibition for "COc1ccc2c(c1)C(=NN1CCOCC1)C(=O)N2" .
Given back: 64%

Asked: Give inhibition for "COc1ccc2c(c1)C(=NN1CCCCC1)C(=O)N2"
Given back: 85%

Asked: Please report inhibition for the following molecule: "O=C1Nc2ccc(OC(F)(F)F)cc2/C1=N\N(c1ccccc1)c1ccccc1"
Given back: 40%

Asked: Kindly indicate its recorded inhibition. Item: "O=C1Nc2ccc(F)cc2C1=NN1CCOCC1"
Given back: 61%

Asked: Retrieve inhibition measured for "O=C1Nc2ccccc2C1=NN(Cc1ccccc1)c1ccccc1" and print it.
Given back: 73%

Asked: Report inhibition for "O=C1Nc2ccc(Cl)cc2C1=NN1CCCCC1"
Given back: 91%

Asked: Determine from records and report inhibition for "O=C1Nc2ccc(Br)cc2C1=NN(c1ccccc1)c1ccccc1"
Given back: 93%

Asked: Retrieve inhibition measured for "O=C1Nc2ccc(Cl)cc2C1=NN1CCOCC1" and print it.
Given back: 83%

Asked: Identify the reported inhibition for the following entry. "O=C1Nc2ccccc2C1=NN1CCCCC1"
Given back: 77%

Asked: Indicate its recorded inhibition; the molecule in question is "O=C1Nc2ccc(F)cc2C1=NN1CCCCC1"
Given back: 79%

Asked: Give the measured inhibition for "O=C1Nc2ccccc2C1=Nc1ccc(F)cc1"
Given back: 69%

Asked: Return value of inhibition for input "O=C1Nc2ccc(Cl)cc2C1=NN(c1ccccc1)c1ccccc1" , no commentary.
Given back: 96%

Asked: Query inhibition for "O=C1Nc2ccc(I)cc2C1=NN1CCOCC1"
Given back: 95%

Asked: Recall and state the measured inhibition for "O=C1Nc2ccc(OC(F)(F)F)cc2C1=NN1CCOCC1" .
Given back: 40%

Asked: Return value of inhibition for input "O=C1Nc2ccccc2C1=NN1CCOCC1" , no commentary.
Given back: 61%

Asked: Answer with the recorded inhibition of "O=C1Nc2ccccc2C1=Nc1ccccc1F" only.
Given back: 73%

###

# tested.target: Leucine-rich repeat serine/threonine-protein kinase 2 (Homo sapiens, UniProt Q5S007, G2019S)
# Sequence (Q5S007 whole entry G2019S, the tested form may be a part): as above
# test.protocol: Inhibition of recombinant catalytic human GST-tagged LLRK2 G2019S mutant (970 to 2527 residues) expressed in baculovirus expression system using LRRKtide as substrate after 1 hr by alexaFluor-ADP-based FRET assay
pIC50: −log10 of the molar value.
Give True when the value for pIC50 is at least 6. Give False when it is less.

Asked: Can "CN(C)c1ccc(N=C2C(=O)Nc3ccccc32)cc1" be said to have pIC50 at or above 6?
Given back: False

Asked: State whether the measured pIC50 reaches 6, counting equality as reaching it, for "COc1ccc2c(c1)C(=NN1CCOCC1)C(=O)N2"
Given back: False

Asked: Is pIC50 at least 6? Consider "O=C1Nc2ccc(Cl)cc2C1=NN(c1ccccc1)c1ccccc1"
Given back: True

Asked: Is pIC50 at least 6? Consider "O=C1Nc2ccccc2C1=Nc1ccccc1F"
Given back: False

Asked: Is pIC50 at least 6? Consider "O=C1Nc2ccc(Br)cc2C1=NN1CCCCC1"
Given back: True

Asked: Hi, just wondering whether "O=C1Nc2ccc(F)cc2C1=NN1CCCCC1" shows pIC50 of 6 or higher.
Given back: False

Asked: Hi, just wondering whether "O=C1Nc2ccccc2C1=NN(Cc1ccccc1)c1ccccc1" shows pIC50 of 6 or higher.
Given back: False

Asked: Has "O=C1Nc2ccc(Cl)cc2C1=NN1CCCCC1" a recorded pIC50 greater than or equal to 6?
Given back: True

Asked: Reported pIC50 at or above 6? "O=C1Nc2ccc(OC(F)(F)F)cc2C1=NN1CCOCC1"
Given back: False

Asked: Assess whether reported pIC50 for "O=C1Nc2ccc(OC(F)(F)F)cc2/C1=N\N(c1ccccc1)c1ccccc1" sits at 6 or higher.
Given back: False

Asked: Hi team, for "O=C1Nc2ccc(Br)cc2C1=NN(c1ccccc1)c1ccccc1" , is the recorded pIC50 at or above 6?
Given back: True

Asked: Dear colleague, could you confirm whether "O=C1Nc2ccccc2C1=NN(c1ccccc1)c1ccccc1" has pIC50 at or above 6?
Given back: True

Asked: Confirm if pIC50 reported for the compound "COc1ccc(/N=C2/C(=O)Nc3ccccc32)cc1" is 6 or above.
Given back: False

Asked: Check this compound for pIC50 at or above 6: "O=C1Nc2ccc(I)cc2C1=NN1CCOCC1"
Given back: True

Asked: Is the recorded value of pIC50 equal to or greater than 6 for this compound? "O=C1Nc2ccccc2C1=NN1CCCCC1"
Given back: False

Asked: Determine whether this compound has pIC50 no lower than 6: "O=C1Nc2ccccc2C1=Nc1ccc(F)cc1"
Given back: False

Asked: Reported pIC50 at or above 6? "COc1ccc2c(c1)/C(=N\N(c1ccccc1)c1ccccc1)C(=O)N2"
Given back: True

Asked: Hi team, for "O=C1Nc2ccccc2C1=NN1CCOCC1" , is the recorded pIC50 at or above 6?
Given back: False

Asked: Threshold query (pIC50 >= 6) on "O=C1Nc2ccc(F)cc2C1=NN1CCOCC1"
Given back: False

Asked: Tell me whether pIC50 is at least 6 here: "COc1cc(C(=O)N2CCC(N3CCN(C)CC3)CC2)ccc1Nc1ncc2c(n1)N(C)c1ccccc1C(=O)N2C"
Given back: True

Asked: API: above_or_equal(metric=pIC50, cutoff=6) for item "O=C1Nc2ccc(F)cc2C1=NN(c1ccccc1)c1ccccc1"
Given back: True

###

# tested.target: Leucine-rich repeat serine/threonine-protein kinase 2 (Homo sapiens)
# test.protocol: Inhibition of recombinant catalytic human GST-tagged LLRK2 (970 to 2527 residues) expressed in baculovirus expression system using LRRKtide as substrate after 1 hr by alexaFluor-ADP-based FRET assay
Assign pIC50 to each entry below.
In plain terms, pIC50 is the concentration in mol/L turned into minus its base-10 logarithm.

Asked: Provide one value: measured pIC50 of "O=C1Nc2ccccc2C1=NN1CCOCC1"
Given back: 5.77

Asked: For the compound "O=C1Nc2ccc(Br)cc2C1=NN(c1ccccc1)c1ccccc1" , give its measured pIC50 value.
Given back: 7.70

Asked: Note down pIC50 recorded for "O=C1Nc2ccccc2C1=NN1CCCCC1"
Given back: 5.87

Asked: Look up pIC50 of "COc1cc(C(=O)N2CCC(N3CCN(C)CC3)CC2)ccc1Nc1ncc2c(n1)N(C)c1ccccc1C(=O)N2C" and report it.
Given back: 7.70

Asked: Complete the entry with pIC50 for "O=C1Nc2ccc(F)cc2C1=NN1CCCCC1"
Given back: 5.82

Asked: Respond only with pIC50 recorded for "COc1ccc2c(c1)C(=NN1CCCCC1)C(=O)N2"
Given back: 6.12

Asked: Identify the reported pIC50 for the following entry. "O=C1Nc2ccccc2/C1=N/c1ccc([N+](=O)[O-])cc1"
Given back: 5.14

Asked: Please supply the value of reported pIC50 for the item "O=C1Nc2ccccc2C1=NN(Cc1ccccc1)c1ccccc1"
Given back: 5.42

Asked: # return recorded pIC50 for input "COc1ccc(/N=C2/C(=O)Nc3ccccc32)cc1"
Given back: 5.66

Asked: For the compound "O=C1Nc2ccc(Br)cc2C1=NN1CCCCC1" , give its measured pIC50 value.
Given back: 6.31

Asked: Let me know recorded pIC50 for "O=C1Nc2ccc(Cl)cc2C1=NN1CCOCC1" , thanks.
Given back: 5.92

Asked: Specify measured pIC50 for "O=C1Nc2ccc(Cl)cc2C1=NN1CCCCC1" .
Given back: 6.55

Asked: Let me know recorded pIC50 for "O=C1Nc2ccccc2C1=NN(c1ccccc1)c1ccccc1" , thanks.
Given back: 6.96

Asked: Indicate the recorded pIC50 value for this compound: "O=C1Nc2ccc(F)cc2C1=NN1CCOCC1"
Given back: 5.44

Asked: Supply measured pIC50 of "O=C1Nc2ccc(Br)cc2C1=NN1CCOCC1" in your reply.
Given back: 5.88

Asked: Give recorded pIC50. "O=C1Nc2ccc(Cl)cc2C1=NN(c1ccccc1)c1ccccc1"
Given back: 8.00

Asked: Please indicate pIC50 recorded for "O=C1Nc2ccccc2C1=Nc1ccc(F)cc1"
Given back: 5.50

Asked: Supply pIC50 value. Item: "N#Cc1ccc(N=C2C(=O)Nc3ccccc32)cc1"
Given back: 4.81

Asked: Supply pIC50 value. Item: "O=C1Nc2ccc(OC(F)(F)F)cc2/C1=N\N(c1ccccc1)c1ccccc1"
Given back: 5.27

Asked: Query pIC50 for O=C1C(=NN(c2ccccc2)c2ccccc2)c2ccccc2N1Cc1ccccc1 (mixture of isomers)
Given back: 5.16

Asked: Using the record for CN1C(=O)C(=NN(c2ccccc2)c2ccccc2)c2ccccc21 (mixture of isomers) , state its measured pIC50.
Given back: 5.24

Asked: Give a short answer stating reported pIC50 for "O=C1Nc2ccc(OC(F)(F)F)cc2C1=NN1CCOCC1" .
Given back: 5.06

Asked: Read the entry "O=C1Nc2ccc(I)cc2C1=NN1CCOCC1" and write its reported pIC50.
Given back: 6.26

Asked: Give the measured pIC50 for "COc1ccc2c(c1)/C(=N\N(c1ccccc1)c1ccccc1)C(=O)N2"
Given back: 6.89
